Examples of compounds with documented pEC50 follow.
System: genotype 3a (S52) wild type transient HCV replicon in Huh-7-derived cells
Test: Transient-transfected HCV replicon EC50, genotype 3a wild type
Format: cell-based, hepatitis C virus
Conditions: Hepatitis C virus; transient-transfected replicon genotype 3a wild type, 72 h; read-out: EC50 3A WT
Lab note: report pEC50 as minus log10 of the concentration in molar units, number only.

>>> obs_value("CC[C@@H]1[C@@H]2CN(C(=O)[C@H](C(C)(C)C)NC(=O)O[C@]3(C)CCC[C@H]3CCCCCc3nc4ccc(OC)cc4nc3O2)[C@@H]1C(=O)N[C@]1(C(=O)NS(=O)(=O)C2(C)CC2)C[C@H]1CC")
6.65

// below: pEC50 requested for another compound
Lookup result for CC[C@@H]1[C@@H]2CN(C(=O)[C@H](C(C)(C)C)NC(=O)O[C@@H]3C[C@H]3CCCCC(F)(F)c3nc4ccc(OC(F)(F)F)cc4nc3O2)[C@@H]1C(=O)N[C@]1(C(=O)NS(=O)(=O)C2(C)CC2)C[C@H]1C(F)F ; measured pEC50: 6.52
